System: SW-620 colon
assay notes: NCI tumour cell line growth inhibition, 48 h; in the data active = GI50 below about 0.43 µM; inactive = the rest
Classes used: true for active, false for inactive

{"compound": "C[C@@H](N)COc1ccc(-c2cnc3ccc(N[C@H](C)c4cccc(F)c4)nn23)cc1", "tested on": "SW-620 colon", "category label": "false"}
{"compound": "CNS(=O)(=O)OCC1OC(n2cnc3cncnc32)C(O)C1O (stereo unspecified)", "tested on": "SW-620 colon", "category label": "false"}
{"compound": "COc1cc(-c2cc3ncccc3c3nc(OCCN(C)C)c4cccnc4c23)cc(OC)c1OC", "tested on": "SW-620 colon", "category label": "true"}
{"compound": "CCC(C)(C)c1cc(O)c(C(C)(C)CC)cc1O", "tested on": "SW-620 colon", "category label": "false"}
{"compound": "Cc1ccccc1C1=C(c2cn(C)c3ccccc23)C(=O)NC1=O", "tested on": "SW-620 colon", "category label": "false"}
{"compound": "O=C([O][Hg][c]1ccccc1)c1ccccc1", "tested on": "SW-620 colon", "category label": "false"}
{"compound": "O=C(/C=C/C12c3ccccc3C(c3ccccc31)C1C(=O)N(c3ccc(Cl)cc3)C(=O)C12)c1ccccn1 (stereo unspecified)", "tested on": "SW-620 colon", "category label": "true"}
{"compound": "Oc1c(C(Nc2ccccn2)c2cccc(Oc3ccccc3)c2)ccc2cccnc12 (stereo unspecified)", "tested on": "SW-620 colon", "category label": "true"}
{"compound": "CN1CC=C(c2cc(NC(=O)Nc3ccc(Oc4ccnc(NC(=O)C5CC5)c4)c(F)c3)cc(C(F)(F)F)c2)CC1", "tested on": "SW-620 colon", "category label": "true"}
{"compound": "CC(c1cc(Cl)ccc1O)c1cc(Cl)ccc1O", "tested on": "SW-620 colon", "category label": "false"}
{"compound": "COC(=O)c1cc(NC(=O)c2cc(NC(=O)c3cc([N+](=O)[O-])n(C)c3)cn2C)cn1C", "tested on": "SW-620 colon", "category label": "false"}
{"compound": "CCCCCCC1N=C(N)N=C(N)N1c1cccc(Cl)c1 (stereo unspecified)", "tested on": "SW-620 colon", "category label": "true"}
{"compound": "COc1ccc2c(c1)N(Cc1ccc(Cl)cc1)CCC2N1CCCC1=O (stereo unspecified)", "tested on": "SW-620 colon", "category label": "false"}
{"compound": "CS(=O)(=O)N1CCC(n2c(=O)c(Oc3ccc(F)cc3F)cc3cnc(NC4CCOCC4)nc32)CC1", "tested on": "SW-620 colon", "category label": "false"}
{"compound": "CC1CCC2C(C)C(=O)OC3OC4(C)CCC1C32OO4 (stereo unspecified)", "tested on": "SW-620 colon", "category label": "false"}
{"compound": "CN1CCN(Cc2ccc(NC(=O)c3cncc(C#Cc4c(N)ncc5ccc(C#N)cc45)c3)cc2C(F)(F)F)CC1", "tested on": "SW-620 colon", "category label": "false"}

Measured values drawn from PubChem BioAssay (NCI) for this set.
